# Test system: HCC-2998 colon
# experiment: NCI-60 one-dose screen, 48 h
# conditions used: 10 µM unless noted
Compounds without any hit were thinned out: in the full panel of roughly 83,000, 20% have a hit. Active and inactive are the calls of the source. Rule for the calls: active = growth percent below 10; inactive = the rest.
Give one outcome, nothing more. List: true (active), false (inactive)

Field: example entries. Status: answers known.
{"compound": "COc1ccc(-c2nc3sccn3c2/C=C/C(=O)c2cc(F)cc(F)c2)cc1", "label": "false"}
{"compound": "COc1ccc(-n2c(-c3ccccc3)c(-c3ccccc3)c3c(SCC(=O)N/N=C/c4ccc(Cl)cc4)ncnc32)cc1", "label": "false"}
{"compound": "COc1cc(NC(=O)SC2=NCCS2)cc(OC)c1", "label": "false"}

Call for entry N/C(=N\S(=O)(=O)c1ccccc1)Nc1nc2ccccc2s1 : false

Call for entry COc1cc(C2CC(c3ccc4c(c3)OCO4)=NN2C(C)=O)cc(OC)c1OC (centres undefined) : false

Call for entry CN1CCN(Cc2ccc(NC(=O)c3nc4ccc5[nH]ncc5c4c4c3CCC4)cc2C(F)(F)F)CC1 : true

Origin of measurements: PubChem BioAssay (NCI)
